Here the recorded pEC50 is given for each entry.
Biological target: Melanocortin receptor 5 (Mus musculus)
Sequence (P41149 whole entry): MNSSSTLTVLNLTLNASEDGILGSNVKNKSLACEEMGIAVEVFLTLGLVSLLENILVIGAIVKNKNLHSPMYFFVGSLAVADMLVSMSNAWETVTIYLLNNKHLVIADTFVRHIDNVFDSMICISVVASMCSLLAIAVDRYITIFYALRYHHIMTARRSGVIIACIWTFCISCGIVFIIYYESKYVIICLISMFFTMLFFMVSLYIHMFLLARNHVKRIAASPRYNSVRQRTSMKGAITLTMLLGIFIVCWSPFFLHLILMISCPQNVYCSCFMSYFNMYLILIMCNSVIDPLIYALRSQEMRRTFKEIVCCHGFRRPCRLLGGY
Experiment: Agonist activity at mouse MC5 receptor expressed in HEK293 cells after 6 hrs by cAMP-based beta-galactosidase reporter gene assay
Assay type: functional, cell-based
Conditions: hek293
The value called pEC50 is obtained by taking minus log10 of the concentration in mol/L.

These recorded examples may help you get a feel for the data.
>>> val("C[C@@H]1NC(=O)[C@H](CC(N)=O)NC(=O)[C@H](Cc2ccc3ccccc3c2)N2C[C@H](CCCNC(=N)N)NC(=O)[C@H](CSCC2=O)NC(=O)[C@@H](Cc2ccccc2)NC(=O)[C@H](Cc2c[nH]cn2)NC(=O)[C@@H](NC(=O)[C@@H](N)Cc2ccc(O)cc2)CSSC[C@@H](C(=O)N[C@@H](Cc2ccc(O)cc2)C(N)=O)NC(=O)[C@H](Cc2ccccc2)NC1=O")
7.28
>>> val("C[C@@H]1NC(=O)[C@H](CC(N)=O)NC(=O)[C@@H](Cc2ccc3ccccc3c2)N2C[C@H](CCCNC(=N)N)NC(=O)[C@H](CSCC2=O)NC(=O)[C@@H](Cc2ccccc2)NC(=O)[C@H](Cc2c[nH]cn2)NC(=O)[C@@H](NC(=O)[C@@H](N)Cc2ccc(O)cc2)CSSC[C@@H](C(=O)N[C@@H](Cc2ccc(O)cc2)C(N)=O)NC(=O)[C@H](Cc2ccccc2)NC1=O")
7.54

Q) Given the molecule C[C@@H]1NC(=O)[C@H](CC(N)=O)NC(=O)[C@H](Cc2c[nH]c3ccccc23)N2C[C@H](C)NC(=O)[C@H](CSCC2=O)NC(=O)[C@@H](Cc2ccccc2)NC(=O)[C@H](Cc2c[nH]cn2)NC(=O)[C@@H](NC(=O)[C@@H](N)Cc2ccc(O)cc2)CSSC[C@@H](C(=O)N[C@@H](Cc2ccc(O)cc2)C(N)=O)NC(=O)[C@H](Cc2ccccc2)NC1=O , what is its reported pEC50?
A) 6.07

---

Target: Melanocortin receptor 3 (Mus musculus)
Sequence (P33033 whole entry): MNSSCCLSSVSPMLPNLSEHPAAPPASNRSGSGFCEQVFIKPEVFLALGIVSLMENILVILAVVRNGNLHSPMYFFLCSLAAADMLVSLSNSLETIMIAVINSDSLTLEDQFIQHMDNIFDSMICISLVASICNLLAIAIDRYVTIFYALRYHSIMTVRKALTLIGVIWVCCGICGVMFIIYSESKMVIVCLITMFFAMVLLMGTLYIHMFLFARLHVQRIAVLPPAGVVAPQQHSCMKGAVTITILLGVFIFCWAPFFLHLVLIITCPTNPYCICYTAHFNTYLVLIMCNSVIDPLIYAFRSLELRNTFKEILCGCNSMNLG
Test: Agonist activity at mouse MC3 receptor expressed in HEK293 cells after 6 hrs by cAMP-based beta-galactosidase reporter gene assay
MEASURED PARAMETER: pEC50
pEC50 is defined as minus the log10 of a concentration measured in mol/L.

Worked examples follow.
>>> val("C[C@@H]1NC(=O)[C@H](CC(N)=O)NC(=O)[C@H](Cc2c[nH]c3ccccc23)N2C[C@H](CCCNC(=N)N)NC(=O)[C@@H](CSCC2=O)NC(=O)[C@@H](Cc2cccc3ccccc23)NC(=O)[C@H](Cc2cnc[nH]2)NC(=O)[C@@H](NC(=O)[C@@H](N)Cc2ccc(O)cc2)CSSC[C@@H](C(=O)N[C@@H](Cc2ccc(O)cc2)C(N)=O)NC(=O)[C@H](Cc2ccccc2)NC1=O")
6.72
>>> val("C[C@@H]1NC(=O)[C@H](CC(N)=O)NC(=O)[C@H](Cc2c[nH]c3ccccc23)N2C[C@H](CCCN=C(N)N)NC(=O)[C@@H](CSCC2=O)NC(=O)[C@@H]2CCCN2C(=O)[C@H](Cc2cnc[nH]2)NC(=O)[C@@H](NC(=O)[C@@H](N)Cc2ccc(O)cc2)CSSC[C@@H](C(=O)N[C@@H](Cc2ccc(O)cc2)C(N)=O)NC(=O)[C@H](Cc2ccccc2)NC1=O")
4.99

# ---- query compound ----
Q) Missing value: pEC50, Melanocortin receptor 3 (Mus musculus), entry C[C@@H]1NC(=O)[C@H](CC(N)=O)NC(=O)[C@H](Cc2c[nH]c3ccccc23)NC(=O)[C@H](CCCN=C(N)N)NC(=O)[C@@H](Cc2ccccc2)NC(=O)[C@H](Cc2cnc[nH]2)NC(=O)[C@@H](NC(=O)[C@@H](N)Cc2ccc(O)cc2)CSSC[C@@H](C(=O)N[C@@H](Cc2ccc(O)cc2)C(N)=O)NC(=O)[C@H](Cc2ccccc2)NC1=O . Fill in?
A) 8.77

Recorded values, source ChEMBL document CHEMBL2321783.
